// reported pEC50 per item
# test_system: human ROR1 on stably transfected cell strain MCF7-hROR1 clone 2G2 (human, UniProt Q01973 30-406)
# method_notes: flow cytometry (FACS) on MCF7-hROR1 clone 2G2 cells, 5-fold dilutions from 100 nM, Alexa Fluor 647 anti-human IgG secondary antibody, four-parameter fit
Answer as the number alone; pEC50 is minus log10 of concentration in mol/L.

binder	pEC50
ADC-L1-19-9 (antibody, human IgG1, kappa, V domains shown, drug-linker L1-19 on cysteine thiols after TCEP reduction; positions not given; DAR 7.3 for the whole conjugate, Antibody-drug conjugate) VH: EVQLLESGGGLVQPGGSLRLSCAASGFTFSNYAMSWVRQAPGKGLEWVSSISHNSGSTYYADSVKGRFTISRDNSKNTLYLQMNSLRAEDTAVYYCAKFISARKSLGRSYSNGMDVWGQGTLVTVSS VL: QSVLTQPPSASGTPGQRVTISCTGSSSNIGSNDVTWYQQLPGTAPKLLIYADSKRPSGVPDRFSGSKSGTSASLAISGLRSEDEADYYCGTWDYSLSGYVFGGGTKLTVLR	9.38

Query: Param item = ADC-L1-0-10 (antibody, human IgG1, kappa, V domains shown, drug-linker L1-0 on cysteine thiols after TCEP reduction; positions not given; DAR 7.5 for the whole conjugate) VH: QVQLRESGPGLVKPSETLSLTCTVSGFDISSYYMSWVRQPPGKGLEWIGAIGISGNAYYASWAKSRVTISRDTSKNQFSLKLSSVTAADTAVYYCARDHPTYGMDLWGPGTLVTVSS VL: SYELTQPPSVSVAPGKTARITCEGNNIGSKAVHWYQQKPGQAPVLVIYDDDERPSGIPERFSGSNSGNTATLTISRVEAGDEADYYCQVWDSSAYVFGGGTKLTVLR ; retrieve measured pEC50.
Result: 8.90

Query: // repeat for ROR1-Ab-2 (antibody, human IgG1, kappa, V domains shown, also called anti-human ROR1 monoclonal antibody ROR1-Ab-2) VH: EVQLLESGGGLVQPGGSLRLSCAASGFTFSNYAMSWVRQAPGKGLEWVSSISHNSGSTYYADSVKGRFTISRDNSKNTLYLQMNSLRAEDTAVYYCAKFISARKSLGRSYSNGMDVWGQGTLVTVSS VL: QSVLTQPPSASGTPGQRVTISCTGSSSNIGSNDVTWYQQLPGTAPKLLIYADSKRPSGVPDRFSGSKSGTSASLAISGLRSEDEADYYCGTWDYSLSGYVFGGGTKLTVLR and report
Result: 9.01

Query: // repeat for ADC-L1-0-8 (antibody, human IgG1, kappa, V domains shown, drug-linker L1-0 on cysteine thiols after TCEP reduction; positions not given; DAR 6.6 for the whole conjugate) VH: QVQLQESGPGLVKPSQTLSLTCTVSGYAFTAYNIHWVRQAPGQGLEWMGSFDPYDGGSSYNQKFKDRLTISKDTSKNQVVLTMTNMDPVDTATYYCARGWYYFDYWGHGTLVTVSS VL: DIVMTQTPLSLPVTPGEPASISCRASKSISKYLAWYQQKPGQAPRLLIYSGSTLQSGIPPRFSGSGYGTDFTLTINNIESEDAAYYFCQQHDESPYTFGEGTKVEIKR and report
Result: 9.12

Query: // repeat for ADC-L1-19-8 (antibody, human IgG1, kappa, V domains shown, drug-linker L1-19 on cysteine thiols after TCEP reduction; positions not given; DAR 7.1 for the whole conjugate, Antibody-drug conjugate) VH: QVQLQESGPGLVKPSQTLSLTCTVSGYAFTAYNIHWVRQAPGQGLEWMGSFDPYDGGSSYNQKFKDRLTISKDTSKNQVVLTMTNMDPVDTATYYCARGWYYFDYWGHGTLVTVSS VL: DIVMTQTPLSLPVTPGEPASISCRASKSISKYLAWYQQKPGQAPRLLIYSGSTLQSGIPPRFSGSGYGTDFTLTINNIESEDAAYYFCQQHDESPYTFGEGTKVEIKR and report
Result: 9.17

Query: // repeat for ADC-L1-19-10 (antibody, human IgG1, kappa, V domains shown, drug-linker L1-19 on cysteine thiols after TCEP reduction; positions not given; DAR 7.2 for the whole conjugate, Antibody-drug conjugate) VH: QVQLRESGPGLVKPSETLSLTCTVSGFDISSYYMSWVRQPPGKGLEWIGAIGISGNAYYASWAKSRVTISRDTSKNQFSLKLSSVTAADTAVYYCARDHPTYGMDLWGPGTLVTVSS VL: SYELTQPPSVSVAPGKTARITCEGNNIGSKAVHWYQQKPGQAPVLVIYDDDERPSGIPERFSGSNSGNTATLTISRVEAGDEADYYCQVWDSSAYVFGGGTKLTVLR and report
Result: 9.01

Query: // repeat for ADC-L1-0-9 (antibody, human IgG1, kappa, V domains shown, drug-linker L1-0 on cysteine thiols after TCEP reduction; positions not given; DAR 5.5 for the whole conjugate) VH: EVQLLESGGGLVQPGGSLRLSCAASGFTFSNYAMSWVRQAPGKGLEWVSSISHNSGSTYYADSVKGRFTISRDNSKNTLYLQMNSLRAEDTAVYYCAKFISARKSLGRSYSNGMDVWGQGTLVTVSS VL: QSVLTQPPSASGTPGQRVTISCTGSSSNIGSNDVTWYQQLPGTAPKLLIYADSKRPSGVPDRFSGSKSGTSASLAISGLRSEDEADYYCGTWDYSLSGYVFGGGTKLTVLR and report
Result: 9.37

Query: // repeat for ADC-L1-19-P1-9 (antibody, human IgG1, kappa, V domains shown, drug-linker L1-19-P1 on cysteine thiols after TCEP reduction; positions not given; DAR 7.7 for the whole conjugate, Antibody-drug conjugate) VH: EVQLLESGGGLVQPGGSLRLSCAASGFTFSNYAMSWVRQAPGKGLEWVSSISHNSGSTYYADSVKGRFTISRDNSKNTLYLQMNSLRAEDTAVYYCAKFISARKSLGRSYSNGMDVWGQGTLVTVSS VL: QSVLTQPPSASGTPGQRVTISCTGSSSNIGSNDVTWYQQLPGTAPKLLIYADSKRPSGVPDRFSGSKSGTSASLAISGLRSEDEADYYCGTWDYSLSGYVFGGGTKLTVLR and report
Result: 9.30

Query: // repeat for ROR1-Ab-1 (antibody, human IgG1, kappa, V domains shown, also called anti-human ROR1 monoclonal antibody ROR1-Ab-1) VH: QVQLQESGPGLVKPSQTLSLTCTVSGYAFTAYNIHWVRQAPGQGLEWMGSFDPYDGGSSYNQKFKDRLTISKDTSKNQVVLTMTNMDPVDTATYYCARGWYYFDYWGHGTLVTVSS VL: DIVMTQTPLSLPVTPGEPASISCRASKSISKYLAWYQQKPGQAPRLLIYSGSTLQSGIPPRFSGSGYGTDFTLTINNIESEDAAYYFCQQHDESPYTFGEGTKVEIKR and report
Result: 9.00

Query: // repeat for ROR1-Ab-3 (antibody, human IgG1, kappa, V domains shown, also called anti-human ROR1 monoclonal antibody ROR1-Ab-3) VH: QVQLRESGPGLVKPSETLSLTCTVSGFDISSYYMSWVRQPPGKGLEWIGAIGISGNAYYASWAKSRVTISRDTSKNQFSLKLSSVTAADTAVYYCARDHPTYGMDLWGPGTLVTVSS VL: SYELTQPPSVSVAPGKTARITCEGNNIGSKAVHWYQQKPGQAPVLVIYDDDERPSGIPERFSGSNSGNTATLTISRVEAGDEADYYCQVWDSSAYVFGGGTKLTVLR and report
Result: 9.04

Measured values drawn from patent US20250304717A1 for this set.
